Can you tell me IC50 for the items I'm about to list?
- target or test system: T1, fusion protein of the extracellular region of human PD-L1 and human IgG1-FC (human, UniProt Q9NZQ7 19-238)
- T1 construct: PD-L1 is put first by convention; also called fusion protein PD-L1 (hFC tag)
- T1 sequence (Q9NZQ7 19-238): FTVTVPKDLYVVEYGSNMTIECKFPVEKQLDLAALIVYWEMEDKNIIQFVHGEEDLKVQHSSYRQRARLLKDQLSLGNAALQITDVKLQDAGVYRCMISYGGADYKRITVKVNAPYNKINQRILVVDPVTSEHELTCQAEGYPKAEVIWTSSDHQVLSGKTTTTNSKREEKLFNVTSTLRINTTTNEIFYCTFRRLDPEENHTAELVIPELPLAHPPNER
- protocol: FACS blocking of PD-L1-hFc binding to 293T-h-PD1 cells, purified antibody
Give bare numbers, in µg/mL.

Give measured IC50 for every item shown.
1. humanized antibody 14A7(hz) (antibody, V domains shown, also called 14A7-4(hz)) VH: QVQLVQSGAEVKKPGASVKVSCKASEYTFTNNWIAWVRQAPGQGLEWVGDIHPGGGFTNYNEKFKVRATLTADTSTSTAYMELSSLRSEDTAVYYCAGSKTRDYDAWFAYWGQGTTVTVSS VL: DIQMTQSPSTLSASVGDRVTITCKSSQSLLYTGNQKNYLAWYQQKPGKAPKLLIYWASTRESGVPSRFSGSGSGTEFTLTISSLQPDDFATYYCQQYYTYRTFGQGTKVEIKR
2. chimeric antibody 14A7(chi) (antibody, V domains shown, also called 14A7-4(chi)) VH: QVQLKQSGAELVRPGTSVKMSCKATEYTFTNNWIAWVKQRPGHGLEWVGDIHPGGGFTNYNEKFKVKATLTADTSSSTAYMQLRSLTSEDSAIYYCAGSKTRDYDAWFAYWGQGTLVTVSA VL: DIVMTQAPSSLAVSVGEKVTLNCKSSQSLLYTGNQKNYLAWYQQKPGQSPKLLIYWASTRESGVPDRFTGSGSGTDFTLTISNVKAEDLAVYFCQQYYTYRTFGGGTKLEIKR

Response given:
1: 1.95; 2: 5.66

Give measured IC50 for every item shown.
1. murine antibody 13C9 (A3) (antibody, V domains shown, Mouse hybridoma antibody (subclone 13C9-1), tested as culture supernatant or purified; Only variable domains printed (the VL as printed ends in RA); also called 13C9-1) VH: QVQLKQSGAGLVKPGASVKLSCKASGYIFTEYIIHWVKQRSGQGLEWIGWFYPGSDNIKYNEKFKDKATLTADKSSSTVYMELSRLTSEDSAVYFCARHETGYFFDYWGQGTTLTVSS VL: DIVITQSPAIMSASPGEKVTMTCSASSSVSKMNWYQQKSGTSPKRWIYDTSKLASGVPSRFSGSGSGTSYSLTISSMEAEDAATYYCQQWSSNPLTFGSGTKLELKR
2. murine antibody 14A7 (A1) (antibody, V domains shown, Mouse hybridoma antibody (subclone 14A7-4), tested as culture supernatant or purified from it; Only the variable domains are printed; also called 14A7-4) VH: QVQLKQSGAELVRPGTSVKMSCKATEYTFTNNWIAWVKQRPGHGLEWVGDIHPGGGFTNYNEKFKVKATLTADTSSSTAYMQLRSLTSEDSAIYYCAGSKTRDYDAWFAYWGQGTLVTVSA VL: DIVMTQAPSSLAVSVGEKVTLNCKSSQSLLYTGNQKNYLAWYQQKPGQSPKLLIYWASTRESGVPDRFTGSGSGTDFTLTISNVKAEDLAVYFCQQYYTYRTFGGGTKLEIK

Response given:
1: 2.38; 2: 2.27

Challenge: Recorded IC50 of chimeric antibody 13C9-1(chi) (antibody, V domains shown, Chimeric antibody of murine 13C9) VH: QVQLKQSGAGLVKPGASVKLSCKASGYIFTEYIIHWVKQRSGQGLEWIGWFYPGSDNIKYNEKFKDKATLTADKSSSTVYMELSRLTSEDSAVYFCARHETGYFFDYWGQGTTLTVSS VL: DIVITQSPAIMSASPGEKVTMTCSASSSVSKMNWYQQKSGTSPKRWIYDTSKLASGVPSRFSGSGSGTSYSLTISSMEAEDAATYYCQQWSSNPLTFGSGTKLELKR , please.
Response given: 2.47
